# ASSAY SYSTEM: BCRP (Homo sapiens, UniProt Q9UNQ0)
# Sequence (Q9UNQ0 whole entry): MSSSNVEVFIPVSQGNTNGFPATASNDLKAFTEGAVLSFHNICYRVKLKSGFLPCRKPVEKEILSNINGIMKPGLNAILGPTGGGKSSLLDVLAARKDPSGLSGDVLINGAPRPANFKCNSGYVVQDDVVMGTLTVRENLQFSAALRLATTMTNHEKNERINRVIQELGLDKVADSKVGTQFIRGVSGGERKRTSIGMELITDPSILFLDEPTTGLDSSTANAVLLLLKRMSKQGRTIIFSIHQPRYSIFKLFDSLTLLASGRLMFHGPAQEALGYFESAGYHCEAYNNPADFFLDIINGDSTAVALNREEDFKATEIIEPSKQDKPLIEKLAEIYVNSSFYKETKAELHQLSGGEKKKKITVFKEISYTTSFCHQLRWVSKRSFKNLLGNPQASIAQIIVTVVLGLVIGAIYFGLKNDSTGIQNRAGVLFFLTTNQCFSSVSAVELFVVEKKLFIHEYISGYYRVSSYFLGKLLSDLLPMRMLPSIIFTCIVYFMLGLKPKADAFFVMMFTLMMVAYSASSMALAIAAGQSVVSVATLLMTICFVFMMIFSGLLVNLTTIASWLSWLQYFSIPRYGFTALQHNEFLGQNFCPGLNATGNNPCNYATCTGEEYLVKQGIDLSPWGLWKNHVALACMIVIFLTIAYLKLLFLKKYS
# ASSAY PROTOCOL: Transcellular transport across MDCK-BCRP cell monolayers (efflux ratio)
# PARTICULARS: dog, pH 7.4
# Experimental: To the compounds available internally, in vitro efflux ratios for MDR1 and BCRP were determined by the following procedure (Supplemental Table 2). […] Permeation of the test compounds from apical to basolateral (A to B) direction or B to A direction was measured in duplicate. […] In addition, the efflux ratio of each compound was also determined. Test and reference compounds were quantified by LC-MS/MS analysis based on the peak area ratio of analyte/internal standard. […]
// values below are reported efflux ratio at 1 h, 1 μM
REPORTED ENDPOINT: efflux ratio at 1 h, 1 μM

molecule=COc1ccc2c(c1)c(CC(=O)O)c(C)n2C(=O)c1ccc(Cl)cc1 recorded_value=12
molecule=C=C[C@H]1C[N@@]2CC[C@H]1C[C@@H]2[C@@H](O)c1ccnc2ccc(OC)cc12 recorded_value=0.9
molecule=Nc1c2c(nc3ccccc13)CCCC2 recorded_value=1.1
molecule="CN(Cc1cnc2nc(N)nc(N)c2n1)c1ccc(C(=O)N[C@@H](CCC(=O)O)C(=O)O)cc1 [Methotrexate]" recorded_value=1.2
molecule=Nc1ccc(S(=O)(=O)c2ccc(N)cc2)cc1 recorded_value=0.8
molecule="CC1(C)O[C@@H]2[C@@H](CO[C@@]3(COS(N)(=O)=O)OC(C)(C)O[C@@H]23)O1 [Topiramate]" recorded_value=0.7
molecule=C#Cc1cccc(Nc2ncnc3cc(OCCOC)c(OCCOC)cc23)c1 recorded_value=5.8

###

# ASSAY PROTOCOL: Observed Kp,uu,brain and Kp,uu,CSF in monkeys
# PARTICULARS: cynomolgus monkey, brain / plasma, intravenous
REPORTED ENDPOINT: Kp uu at 6 h

compound="NCC(CC(=O)O)c1ccc(Cl)cc1 (stereo not shown)" recorded_value=0.037

###

# ASSAY SYSTEM: MDR1 (Homo sapiens)
# Sequence (P08183 whole entry): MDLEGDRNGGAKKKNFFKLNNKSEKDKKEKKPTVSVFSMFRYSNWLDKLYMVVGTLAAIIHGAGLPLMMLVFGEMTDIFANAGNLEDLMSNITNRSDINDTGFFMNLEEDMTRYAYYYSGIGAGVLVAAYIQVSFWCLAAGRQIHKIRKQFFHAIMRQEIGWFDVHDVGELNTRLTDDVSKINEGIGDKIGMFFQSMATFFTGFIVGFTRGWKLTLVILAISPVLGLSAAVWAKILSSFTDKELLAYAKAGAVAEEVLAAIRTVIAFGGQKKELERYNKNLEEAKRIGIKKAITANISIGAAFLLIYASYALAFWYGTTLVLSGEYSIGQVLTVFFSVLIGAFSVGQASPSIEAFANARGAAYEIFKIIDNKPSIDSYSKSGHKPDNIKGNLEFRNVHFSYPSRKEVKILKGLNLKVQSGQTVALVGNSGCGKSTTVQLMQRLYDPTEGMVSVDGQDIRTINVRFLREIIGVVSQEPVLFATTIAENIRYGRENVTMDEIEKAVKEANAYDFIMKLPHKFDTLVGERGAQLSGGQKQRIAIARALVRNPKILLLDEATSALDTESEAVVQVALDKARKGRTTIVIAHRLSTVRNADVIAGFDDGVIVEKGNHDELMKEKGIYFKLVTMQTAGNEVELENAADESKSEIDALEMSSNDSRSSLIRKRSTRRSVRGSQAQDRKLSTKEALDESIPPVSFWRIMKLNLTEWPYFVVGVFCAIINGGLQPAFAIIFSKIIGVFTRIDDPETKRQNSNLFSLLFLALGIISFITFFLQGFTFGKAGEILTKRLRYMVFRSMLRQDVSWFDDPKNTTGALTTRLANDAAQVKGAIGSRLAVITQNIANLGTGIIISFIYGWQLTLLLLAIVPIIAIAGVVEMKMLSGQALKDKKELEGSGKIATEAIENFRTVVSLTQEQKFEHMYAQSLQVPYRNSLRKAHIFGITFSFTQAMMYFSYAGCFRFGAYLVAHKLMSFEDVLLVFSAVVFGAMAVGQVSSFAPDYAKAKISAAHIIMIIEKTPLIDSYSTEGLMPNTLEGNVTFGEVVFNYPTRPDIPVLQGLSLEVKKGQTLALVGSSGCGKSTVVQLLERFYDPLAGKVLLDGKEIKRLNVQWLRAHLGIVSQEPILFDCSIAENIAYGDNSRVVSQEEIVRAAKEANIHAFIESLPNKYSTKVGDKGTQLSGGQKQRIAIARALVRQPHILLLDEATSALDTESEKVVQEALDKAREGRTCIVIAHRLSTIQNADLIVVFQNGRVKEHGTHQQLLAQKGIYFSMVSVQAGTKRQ
# ASSAY PROTOCOL: in vitro
# PARTICULARS: dog, MDCK-MDR1, pH 7.4
REPORTED ENDPOINT: efflux ratio at 1 h, 1 μM

compound=COc1ccc2c(c1)c(CC(=O)O)c(C)n2C(=O)c1ccc(Cl)cc1 reported_endpoint="efflux ratio at 1 h, 1 μM" recorded_value=3.2
compound="CN(C)C(=O)C(CCN1CCC(O)(c2ccc(Cl)cc2)CC1)(c1ccccc1)c1ccccc1 [Loperamide]" reported_endpoint="efflux ratio at 1 h, 1 μM" recorded_value=92
compound=CN[C@H]1CC[C@@H](c2ccc(Cl)c(Cl)c2)c2ccccc21 reported_endpoint="efflux ratio at 1 h, 1 μM" recorded_value=0.5
compound="NC(=O)N1c2ccccc2C=Cc2ccccc21 [Carbamazepine]" reported_endpoint="efflux ratio at 1 h, 1 μM" recorded_value=1.3

###

# ASSAY SYSTEM: BCRP (Homo sapiens)
# ASSAY PROTOCOL: Transcellular transport across MDCK-BCRP cell monolayers (efflux ratio)
# PARTICULARS: dog, pH 7.4
Would you please tag the item t when its efflux ratio at 1 h, 1 μM is 1 or above, and f when it is below?

molecule="COc1cc([C@@H]2c3cc4c(cc3[C@@H](O[C@@H]3O[C@@H]5CO[C@@H](C)O[C@H]5[C@H](O)[C@H]3O)[C@H]3COC(=O)[C@H]23)OCO4)cc(OC)c1O [Etoposide]" class_assignment=t
molecule=CN[C@H]1CC[C@@H](c2ccc(Cl)c(Cl)c2)c2ccccc21 class_assignment=t
molecule=COc1cc2nc(N3CCN(C(=O)c4ccco4)CC3)nc(N)c2cc1OC class_assignment=t
molecule="NC(=O)N1c2ccccc2C=Cc2ccccc21 [Carbamazepine]" class_assignment=f
molecule="COc1ccc(C(CN(C)C)C2(O)CCCCC2)cc1 (stereo not drawn)" class_assignment=f
molecule="CN(C)C(=O)C(CCN1CCC(O)(c2ccc(Cl)cc2)CC1)(c1ccccc1)c1ccccc1 [Loperamide]" class_assignment=f
molecule="CC(C)NCC(O)COc1cccc2[nH]ccc12 (stereo not drawn)" class_assignment=t
